targetOfAssay: cFMS (Homo sapiens)
Construct: THP-1 cells (human acute monocytic leukemia cell line) were serum-starved for 4 hours; endogenous in cells
assayExplanation: cFMS Cell-Based Assay (Example C)
runConditions: averaged IC50; phospho-cFMS in THP-1 cells stimulated with 250 ng/mL recombinant human MCSF; read-out: cFMS Cell ELISA IC50
Counter-ions that a name gives are not always drawn.
readoutLabel: pIC50
Keep in mind that pIC50 stands for -log10 of concentration in molar terms.

// below: answered compounds
compound=COCCOc1ccn2c(C(=O)Nc3cccc4c3cnn4Cc3cccc(OC)c3)cnc2c1 readoutlabel=pIC50 readoutnumber=8.51
compound="Cc1cccc(Cn2nc(C)c3c(NC(=O)c4cnc5cc(N6CCCC6)ccn45)cccc32)n1 [Example 54, dihydrochloride]" readoutlabel=pIC50 readoutnumber=8.06
compound=Cc1cccc(Cn2nc(C)c3c(NC(=O)c4cnc5cc(OCCN6CCN(C(=O)OC(C)(C)C)CC6)ccn45)cccc32)n1 readoutlabel=pIC50 readoutnumber=7.49
compound="CN1CCN(CCOc2ccn3c(C(=O)Nc4cccc5c4cnn5Cc4cn(C)cn4)cnc3c2)CC1 [Example 106, dihydrochloride]" readoutlabel=pIC50 readoutnumber=6.80

Request: Give pIC50 only, for "Cc1cccc(Cn2nc(C)c3c(NC(=O)c4cnc5ccccn45)cccc32)n1" , using cFMS (Homo sapiens) data.
Result: 7.24

Request: Give pIC50 only, for O=C(Nc1cccc2c1cnn2Cc1ccccc1)c1cnc2cc(OCC(O)CO)ccn12 (stereo not drawn) , using cFMS (Homo sapiens) data.
Result: 8.36

----------
targetOfAssay: cFMS (Homo sapiens, UniProt P07333)
Construct: THP-1 cells (human acute monocytic leukemia cell line) were serum-starved for 4 hours; endogenous in cells
Sequence (P07333 20-972): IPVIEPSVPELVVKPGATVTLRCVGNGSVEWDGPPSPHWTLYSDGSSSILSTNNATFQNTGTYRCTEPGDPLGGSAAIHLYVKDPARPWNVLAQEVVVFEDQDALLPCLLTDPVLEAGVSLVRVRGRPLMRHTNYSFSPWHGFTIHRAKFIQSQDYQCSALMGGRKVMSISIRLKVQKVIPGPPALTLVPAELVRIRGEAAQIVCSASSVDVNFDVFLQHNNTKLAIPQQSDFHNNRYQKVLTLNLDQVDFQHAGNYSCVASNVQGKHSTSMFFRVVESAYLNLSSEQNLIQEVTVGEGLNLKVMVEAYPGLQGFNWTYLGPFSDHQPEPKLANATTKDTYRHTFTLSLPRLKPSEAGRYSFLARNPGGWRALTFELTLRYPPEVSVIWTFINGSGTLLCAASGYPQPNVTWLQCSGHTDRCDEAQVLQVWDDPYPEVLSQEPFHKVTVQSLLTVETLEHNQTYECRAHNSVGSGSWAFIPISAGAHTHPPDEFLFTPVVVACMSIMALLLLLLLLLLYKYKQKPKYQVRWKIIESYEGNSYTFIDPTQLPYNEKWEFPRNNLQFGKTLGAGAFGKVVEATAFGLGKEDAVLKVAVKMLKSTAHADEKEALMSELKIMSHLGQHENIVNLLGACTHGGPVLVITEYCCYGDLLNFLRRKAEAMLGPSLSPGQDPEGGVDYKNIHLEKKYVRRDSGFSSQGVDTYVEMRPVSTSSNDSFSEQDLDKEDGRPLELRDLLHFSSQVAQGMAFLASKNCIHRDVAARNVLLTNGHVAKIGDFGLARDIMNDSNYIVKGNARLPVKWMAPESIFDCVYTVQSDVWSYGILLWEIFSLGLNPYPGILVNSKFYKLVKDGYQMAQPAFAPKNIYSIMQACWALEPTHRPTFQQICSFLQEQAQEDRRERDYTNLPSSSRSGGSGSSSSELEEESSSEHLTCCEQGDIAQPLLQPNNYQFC
assayExplanation: cFMS Cell-Based Assay (Example C)
runConditions: averaged IC50; phospho-cFMS in THP-1 cells stimulated with 250 ng/mL recombinant human MCSF; read-out: cFMS Cell ELISA IC50
Structures can show the parent of a compound that is named as a salt.
List of IC50 values.

// below: answered molecules
molecule="CC(C)N1CCN(CCOc2ccn3c(C(=O)Nc4cccc5c4c(Cl)nn5Cc4cccc(C5CC5)n4)cnc3c2)CC1 [Example 21]" result="0.012 µM"
molecule="Cc1nn(Cc2cccc(C3CC3)n2)c2cccc(NC(=O)c3cnc4cc(OCCN5CCN(C)[C@H](C)C5)ccn34)c12 [Example 27, dihydrochloride]" result="0.0138 µM"
molecule="COCCOc1ccn2c(C(=O)Nc3cccc4c3cnn4Cc3ccccc3)cnc2c1 [Example 156]" result="0.0057 µM"
molecule="COCCOc1ccn2c(C(=O)Nc3cccc4c3cnn4Cc3cccc(C)n3)cnc2c1 [Example 142]" result="0.0069 µM"
molecule="Cc1cccc(Cn2nc(C)c3c(NC(=O)c4cnc5cc(O)ccn45)cccc32)n1 [Example 63]" result="0.047 µM"
molecule="COc1cccc(Cn2nc(C)c3c(NC(=O)c4cnc5cc(OCCN6CCN(C)CC6)ccn45)cccc32)n1 [Example 87]" result="0.0049 µM"

Request: Name the recorded IC50 of the item COc1ccc2ncc(C(=O)Nc3cccc4c3cnn4Cc3ccccc3)n2c1 [Example 159] in your answer.
Result: 0.0266 µM

Request: Name the recorded IC50 of the item Cc1cccc(Cn2nc(C)c3c(NC(=O)c4cnc5cc(-c6cn[nH]c6)ccn45)cccc32)n1 [Example 70] in your answer.
Result: 0.0051 µM

Request: Name the recorded IC50 of the item CN1CCN(CCOc2ccn3c(C(=O)Nc4c(Cl)ccc5c4cnn5Cc4cccc(C(F)(F)F)c4)cnc3c2)CC1 [Example 100] in your answer.
Result: 0.0236 µM

Request: Name the recorded IC50 of the item Cc1cccc(Cn2nc(C)c3c(NC(=O)c4cnc5cc(-c6ccnn6C)ccn45)cccc32)n1 [Example 71] in your answer.
Result: 0.0076 µM

Request: Name the recorded IC50 of the item COCCOc1ccn2c(C(=O)Nc3cccc4c3cnn4Cc3ccccn3)cnc2c1 [Example 112] in your answer.
Result: 0.0337 µM

Request: Name the recorded IC50 of the item CC(C)c1cccc(Cn2ncc3c(NC(=O)c4cnc5cc(OCCN6CCN(C)CC6)ccn45)cccc32)n1 [Example 138] in your answer.
Result: 0.0085 µM

Request: Name the recorded IC50 of the item Cc1cccc(Cn2nc(C)c3c(NC(=O)c4cnc5cc(-c6c(C)n[nH]c6C)ccn45)cccc32)n1 [Example 69] in your answer.
Result: 0.0082 µM

Request: Name the recorded IC50 of the item O=C(Nc1cccc2c1cnn2Cc1ccccc1)c1cnc2cc(-c3cn[nH]c3)ccn12 [Example 145] in your answer.
Result: 0.0205 µM

Request: Name the recorded IC50 of the item Cc1nn(Cc2cccc(C(F)(F)F)n2)c2cccc(NC(=O)c3cnc4cc(OCCN5CCN(C(C)C)CC5)ccn34)c12 [Example 45] in your answer.
Result: 0.0134 µM

The measured values listed here are drawn from patent US10669269B2.
